# Tested on: RPMI-8226 leukemia
# EXPERIMENT: NCI-60 one-dose screen, 48 h
# TEST CONDITIONS: 10 µM unless noted
Compounds without any hit were thinned out: in the full panel of roughly 83,000, 20% have a hit. Activity calls are given as the source filed them. The calls were made as follows: active = growth percent below 10; inactive = the rest.
Outcome codes: active, inactive

{"columns": ["COMPOUND", "LABEL VALUE"],
 "data": [
  ["O=C(Nc1ccc(N2CCNCC2)cn1)c1[nH]ncc1Nc1ncnc2sccc12", "active"],
  ["COc1cc(C2C3=C(COC3=O)N(CCO)c3cc4c(cc32)CCC4)cc(OC)c1O (stereo not drawn)", "inactive"],
  ["COc1ccc(CCN2C(=O)/C(=C/c3ccc(C4Oc5ccccc5C5CC(c6cccc(OC)c6)=NN54)cc3)SC2=S)cc1 (stereo not drawn)", "inactive"]
]}

###

# Test system: HT29 colon
# EXPERIMENT: NCI-60 one-dose screen, 48 h
# TEST CONDITIONS: 10 µM unless noted
About 83,000 compounds went through this panel and 20% of them were active in at least one assay; those are over-represented in the sample as a whole. Calls of active or inactive are those of the source. The calls were made as follows: active = growth percent below 10; inactive = the rest.
Outcome codes: active, inactive

{"columns": ["COMPOUND", "LABEL VALUE"],
 "data": [
  ["CCOC(=O)C1=C(C)N=c2s/c(=C\\c3ccccc3O)c(=O)n2C1c1ccc(OC)c2ccccc12 (stereo not drawn)", "active"],
  ["O=C(N/N=C/c1ccccc1O)C(=O)Nc1ccc(F)cc1", "inactive"],
  ["COC(=O)/C(CCC=C(C)C)=C1\\[C@@H](OC(C)=O)C[C@@]2(C)[C@H]1C[C@@H](O)[C@H]1[C@@]3(C)CC[C@H](NCc4ccccc4)[C@@H](C)[C@@H]3CC[C@@]12C", "inactive"]
]}

###

The following compounds are listed with their measured growth values.
# Tested on: CCRF-CEM leukemia
# EXPERIMENT: NCI-60 one-dose screen, 48 h (100 = growth as untreated, 0 = no growth, -100 = all killed)
# TEST CONDITIONS: 10 µM unless noted
About 83,000 compounds went through this panel and 20% of them were active in at least one assay; those are over-represented in the sample as a whole.

{"columns": ["COMPOUND", "growth, %"],
 "data": [
  ["COc1cc(C2CC(c3ccc(Nc4nc(NCCO)nc(N5CCOCC5)n4)cc3)=NN2c2cc(Cl)cc(Cl)c2)cc(OC)c1OC (stereo not drawn)", 48],
  ["O=Cc1c(OCc2cnnn2CC(=O)Nc2ccc(Br)cc2)ccc2ccccc12", 97.4],
  ["COc1c2ccoc2c(/C=C/C=O)c2oc(-c3ccccc3)cc(=O)c12", 0.373],
  ["O=C(NC1CCCCC1)C(c1cccs1)N(CCc1ccccc1)C(=O)c1ccco1 (stereo not drawn)", 93.8],
  ["COc1nccc2cc3c(=O)n4c(cc5ccccc54)c(=O)n3c12", 96.5],
  ["FC(F)(F)c1cccc(CNC2CCN(CCc3ccccc3)CC2)c1", 13.2],
  ["Nc1nc(-c2ccccc2Br)nn1-c1nc2ccccc2s1", 101],
  ["CCCC(=O)CC(C)=O.CCCC(=O)CC(C)=O.[Cu]", 107],
  ["CCOC(=O)c1ccc(N=Cc2sc(=O)[nH]c2O)cc1", 101],
  ["CCCCCCC(O)(c1ccc(F)cc1)C(CN1CCOCC1)c1ccccc1 (stereo not drawn)", 18.1],
  ["O=c1oc2ccc(I)cc2c(=O)n1-c1ccc(F)cc1F", 17.2],
  ["CCOc1cccc(/C=N/NC(=O)C(=O)Nc2cccc(C(F)(F)F)c2)c1O", 14.1],
  ["CC1=C(C(=O)OCC2CCN(C(=O)OC(C)(C)C)CC2)[C@@H](c2cccc(C#N)c2)C2=C(CC(C)(C)CC2=O)N1", 36.8],
  ["COc1ccc(Cn2c(Br)c3c(c2Br)-c2nc(NC(=O)c4ccc(OC)cc4)sc2CC3)cc1", 85.3],
  ["COc1cc(/C=C2\\CN(C)C/C(=C\\c3cc(CN4CCCC4)c(O)c(OC)c3)C2=O)cc(CN2CCCC2)c1O", 34.1],
  ["COc1ccccc1C(=O)O/N=C(\\N)Cc1cccc2ccccc12", 80.1],
  ["Cc1ccc(S(=O)(=O)c2c(COC(=O)c3cccc(C)c3)c(-c3ccccc3)nn2C)cc1", -7.63],
  ["COc1cccc(/C(C#N)=C/c2nc3c(N4CCOCC4)nc(Cl)nc3n2C)c1", 2.67],
  ["O=C(CSc1nc2ccccc2c(=O)n1-c1ccccc1)Nc1ccc(C(=O)/C=C/c2ccc(Cl)cc2)cc1", 99.7],
  ["COc1cccc2c1C=C1CCCCC3=Cc4c(OC)cccc4OC13O2", 27.9],
  ["CNCCNc1nc2ccccc2c2c(=O)c3cccc(OC)c3sc12", 12.2],
  ["CC1=C(CC(=O)c2cccc([N+](=O)[O-])c2)C(=O)c2ccccc2C1=O", 4.59],
  ["COc1ccc(C2=Nn3c(NN)nnc3SC2)cc1", 95.1],
  ["OC(c1ccccc1)c1nnc(SCc2ccccc2)n1Cc1ccccc1 (stereo not drawn)", 75.4],
  ["COC(=O)C1(C)CCC[C@]2(C)[C@H]3C[C@H]4C(C(C)C)=C[C@]3(CC[C@@H]12)[C@H]1[C@@H]4[C@@H](OCC#CCN2CCOCC2)CC[C@@H]1OCC#CCN1CCOCC1 (stereo partly drawn)", 72],
  ["CCOC(=O)c1cc2c(n1Cc1cc(OC)cc(OC)c1)-c1oncc1CCC2", 9.16],
  ["Cn1c(=O)n(C)c2cc(CNCCNc3ccnc4cc(Cl)ccc34)ccc21", 58.5],
  ["CCOc1ccccc1CN1CCc2nc3cc(C(C)(C)C)[nH]n3c(=O)c2C1", 91.8]
]}
